# reported pIC50; entries follow
SUBJECT_OF_TEST: CCR2 (Homo sapiens (Human), UniProt P41597)
Sequence (P41597 whole entry, species assumed): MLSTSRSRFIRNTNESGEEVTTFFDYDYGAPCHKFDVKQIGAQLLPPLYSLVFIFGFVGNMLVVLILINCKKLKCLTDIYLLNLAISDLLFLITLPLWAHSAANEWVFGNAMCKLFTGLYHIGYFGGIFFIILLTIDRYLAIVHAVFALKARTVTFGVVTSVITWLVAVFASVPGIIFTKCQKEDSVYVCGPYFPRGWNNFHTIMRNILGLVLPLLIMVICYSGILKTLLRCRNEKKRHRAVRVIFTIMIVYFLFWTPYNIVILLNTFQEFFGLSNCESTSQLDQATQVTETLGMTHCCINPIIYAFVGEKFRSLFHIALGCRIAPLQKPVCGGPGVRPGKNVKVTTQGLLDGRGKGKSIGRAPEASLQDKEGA
MEASUREMENT_NOTES: Calcium activity assayed on the FLIPR Tetra in HEK-Gqi5 cells stably expressing CCR2
CONDITION_SUMMARY: FLIPR Tetra calcium assay
By convention, pIC50 is the negative base-10 log of a molar concentration.

{"columns": ["MOLECULE", "pIC50"],
 "data": [
  ["CN(C)C(=O)CC[S+]([O-])c1ccc(Cl)cc1NS(=O)(=O)c1ccc(Cl)c(C(F)(F)F)c1 (stereo not drawn)", 7.02],
  ["O=S(=O)(Nc1cc(Cl)ccc1[S+]([O-])Cc1ncc[nH]1)c1ccc(Cl)c(C(F)(F)F)c1 (stereo not drawn)", 6.79],
  ["COc1ccc([S+]([O-])Cc2cccc(N)c2)c(NS(=O)(=O)c2cc3ccccc3o2)c1 (stereo not drawn)", 7.07],
  ["CC(C)(C)OC(=O)Nc1cccc(C[S+]([O-])c2ccc(Cl)cc2NS(=O)(=O)c2cc3ccccc3o2)n1 (stereo not drawn)", 6.28],
  ["O=S(=O)(Nc1cc(Cl)ccc1SCc1ncccn1)c1cc2ccccc2o1", 6.26],
  ["NCC[S+]([O-])c1ccc(Cl)cc1NS(=O)(=O)c1ccc(Cl)c(C(F)(F)F)c1 (stereo not drawn)", 5.45],
  ["CN(C)CCCSc1ccc(Cl)cc1NS(=O)(=O)c1cc2ccccc2o1", 5.69],
  ["O=S(=O)(Nc1cc(Cl)ccc1[S+]([O-])Cc1ncc[nH]1)c1cc2ccccc2o1 (stereo not drawn)", 5.72]
]}

Problem: What pIC50 appears in the records for this molecule with CCR2 (Homo sapiens (Human), UniProt P41597)? NC(=O)CC[S+]([O-])c1ccc(Cl)cc1NS(=O)(=O)c1ccc(Cl)c(C(F)(F)F)c1 (stereo not drawn)
Solution: 6.10

----------
SUBJECT_OF_TEST: CCR2 (Homo sapiens (Human), UniProt P41597)
MEASUREMENT_NOTES: Calcium activity assayed on the FLIPR Tetra in HEK-Gqi5 cells stably expressing CCR2
CONDITION_SUMMARY: FLIPR Tetra calcium assay
Each entry falls in a class defined on IC50; the bands are Low (below 100 nM), Mid (100 nM to below 400 nM), High (400 nM or more)

Below, 5 compounds whose answers are already recorded.
{"columns": ["COMPOUND", "SUBJECT_OF_TEST", "CAT"],
 "data": [
  ["CC(C)Sc1ccc(Cl)cc1NS(=O)(=O)c1ccc(Cl)c(C(F)(F)F)c1", "CCR2 (Homo sapiens (Human), UniProt P41597)", "Mid"],
  ["CC(C)(C)OC(=O)Nc1nc(CSc2ccc(Cl)cc2NS(=O)(=O)c2cc3ccccc3o2)cs1", "CCR2 (Homo sapiens (Human), UniProt P41597)", "High"],
  ["CS(=O)(=O)c1ccc(Cl)cc1NS(=O)(=O)c1ccc(Cl)c(C(F)(F)F)c1", "CCR2 (Homo sapiens (Human), UniProt P41597)", "Low"],
  ["Nc1cccc(CS(=O)(=O)c2ccc(Cl)cc2NS(=O)(=O)c2cccc(Cl)c2)c1", "CCR2 (Homo sapiens (Human), UniProt P41597)", "Mid"],
  ["N#Cc1ccc([S+]([O-])Cc2ccccc2)c(NS(=O)(=O)c2cc3ccccc3o2)c1 (stereo not shown)", "CCR2 (Homo sapiens (Human), UniProt P41597)", "Low"]
]}

Problem: Into which category would you place "Nc1nnc(CSc2ccc(Cl)cc2NS(=O)(=O)c2cc3ccccc3o2)[nH]1" ?
Solution: Low

Problem: Please classify: "CSc1ccc(Cl)cc1NS(=O)(=O)c1ccc(C)o1"
Solution: Low

Problem: Sort into band: "Nc1cccc(CSc2ccc(Cl)cc2NS(=O)(=O)c2cc3ccccc3o2)c1"
Solution: Low

Problem: Which bin, given its IC50, does O=S(=O)(Nc1cc(Cl)ccc1[S+]([O-])Cc1cc[nH]n1)c1cc2ccccc2o1 (stereo not shown) occupy?
Solution: High

Problem: Class label required: "Nc1cc(CS(=O)(=O)c2ccc(Cl)cc2NS(=O)(=O)c2cc3ccccc3o2)n[nH]1"
Solution: High

Problem: State the band of "CS(=O)(=O)c1ccc(Cl)cc1NS(=O)(=O)c1cc2cc(Cl)ccc2o1"
Solution: High

Problem: For the record Cc1ccc(S(=O)(=O)Nc2cc(Cl)ccc2[S+](C)[O-])cc1[N+](=O)[O-] (stereo not shown) , report the class its IC50 corresponds to.
Solution: Mid

Problem: Could you place CC(C)(C)OC(=O)Nc1nc(C[S+]([O-])c2ccc(Cl)cc2NS(=O)(=O)c2cc3ccccc3o2)cs1 (stereo not shown) in its proper category? Many thanks.
Solution: High

Problem: Any idea which band Nc1cccc(C[S+]([O-])c2ccc(Cl)cc2NS(=O)(=O)c2ccc(F)cc2F)c1 (stereo not shown) is in?
Solution: High

Problem: State the class of the compound shown: COC(=O)CC[S+]([O-])c1ccc(Cl)cc1NS(=O)(=O)c1ccc(Cl)c(C(F)(F)F)c1 (stereo not shown)
Solution: Mid

Problem: Dear colleague, I would appreciate it if you could identify the bin for "Nc1cccc(CS(=O)(=O)c2ccc(Cl)cc2NS(=O)(=O)c2ccc(F)cc2F)c1" and reply at your convenience.
Solution: High

Problem: Bin? O=S(=O)(Nc1cc(Cl)ccc1[S+]([O-])Cc1cccnc1)c1cc2ccccc2o1 (stereo not shown)
Solution: Low

Problem: Place this compound in its band: "Nc1ccccc1CS(=O)(=O)c1ccc(Cl)cc1NS(=O)(=O)c1cc2ccccc2o1"
Solution: Mid

----------
SUBJECT_OF_TEST: CCR2 (Homo sapiens (Human))
MEASUREMENT_NOTES: Calcium activity assayed on the FLIPR Tetra in HEK-Gqi5 cells stably expressing CCR2
CONDITION_SUMMARY: FLIPR Tetra calcium assay
log10 IC50 values, listed per item
Form field - Quantity: IC50; Unit: µM; Scale: log10

Worked set:
{"columns": ["COMPOUND", "MEASURED_PROPERTY", "MEAS_VALUE"],
 "data": [
  ["O=[N+]([O-])c1cccc([S+]([O-])c2ccc(Cl)cc2NS(=O)(=O)c2ccc(Cl)c(C(F)(F)F)c2)c1 (stereo not drawn)", "log10 IC50", -0.29],
  ["O=S(=O)(Nc1cc(Cl)ccc1[S+]([O-])Cc1cccc(O)c1)c1cc2ccccc2o1 (stereo not drawn)", "log10 IC50", -0.95],
  ["CCCn1cnc(C[S+]([O-])c2ccc(Cl)cc2NS(=O)(=O)c2cc3ccccc3o2)c1 (stereo not drawn)", "log10 IC50", -0.09]
]}

Problem: I have this compound here, "CCS(=O)(=O)c1ccc(Cl)cc1NS(=O)(=O)c1ccc(Cl)c(C(F)(F)F)c1" , and I need its recorded log10 IC50.
Solution: -1.06

----------
SUBJECT_OF_TEST: CCR2 (Homo sapiens (Human), UniProt P41597)
MEASUREMENT_NOTES: Calcium activity assayed on the FLIPR Tetra in HEK-Gqi5 cells stably expressing CCR2
Type: cell-based
CONDITION_SUMMARY: FLIPR Tetra calcium assay
Protocol: HEK-Gqi5 cells stably expressing CCR2 were cultured in (DMEM high glucose, 10% FBS, 1% PSA, 400 μg/ml geneticin and 50 μg/ml hygromycin. Appropriate positive control chemokines (MCP-1, MIP1A or RANTES) was used as the positive control agonist for screening compound-induced calcium activity assayed on the FLIPR^Tetra. The drug plates were prepared in 384-well microplates using the EP3 and the MuItiPROBE robotic liquid handling systems. Compounds were synthesized and tested for CCR^2 activity.
CCR2 % ANTAGONISM values by entry
Answer format: numeric, % implied, no suffix.

{"columns": ["MOLECULE", "MEASURED_PROPERTY", "MEAS_VALUE"],
 "data": [
  ["O=C1NCC(C[S+]([O-])c2ccc(Cl)cc2NS(=O)(=O)c2cc3ccccc3o2)O1 (stereo not shown)", "CCR2 % ANTAGONISM", 79],
  ["CSc1ccc(Cl)cc1NS(=O)(=O)c1cc2ccccc2o1", "CCR2 % ANTAGONISM", 99]
]}

Problem: Recorded CCR2 % ANTAGONISM for "O=c1cc(CS(=O)(=O)c2ccc(Cl)cc2NS(=O)(=O)c2cc3ccccc3o2)[nH]c(=O)[nH]1" , please?
Solution: 70

Problem: Entry C[S+]([O-])c1ccc(Cl)cc1NS(=O)(=O)c1cccc(Cl)c1F (stereo not shown) has what CCR2 % ANTAGONISM?
Solution: 101

----------
SUBJECT_OF_TEST: UniProt P41597
MEASUREMENT_NOTES: Calcium activity assayed on the FLIPR Tetra in HEK-Gqi5 cells stably expressing CCR2
Format: cell-based
CONDITION_SUMMARY: FLIPR Tetra calcium assay
Overview of reported CCR2 % ANTAGONISM across a group of molecules:
Report the figure in % without appending any unit label.

Here is how some molecules turned out for CCR2 % ANTAGONISM.
{"columns": ["MOLECULE", "SUBJECT_OF_TEST", "CCR2 % ANTAGONISM (%)"],
 "data": [
  ["O=[N+]([O-])c1ccccc1C[S+]([O-])c1ccc(Cl)cc1NS(=O)(=O)c1cc2ccccc2o1 (stereo not drawn)", "UniProt P41597", 95],
  ["O=S(=O)(Nc1cc(Cl)ccc1[S+]([O-])Cc1ncccn1)c1cc2ccccc2o1 (stereo not drawn)", "UniProt P41597", 104],
  ["CC(=O)NCC[S+]([O-])c1ccc(Cl)cc1NS(=O)(=O)c1ccc(Cl)c(C(F)(F)F)c1 (stereo not drawn)", "UniProt P41597", 97],
  ["O=S(=O)(Nc1cc(Cl)ccc1S(=O)(=O)C1CCC(O)C1)c1ccc(Cl)c(C(F)(F)F)c1 (stereo not drawn)", "UniProt P41597", 97],
  ["CN(C)C(=O)CC[S+]([O-])c1ccc(Cl)cc1NS(=O)(=O)c1cc2ccccc2o1 (stereo not drawn)", "UniProt P41597", 104],
  ["CNC(=O)C[S+]([O-])c1ccc(Cl)cc1NS(=O)(=O)c1ccc(Cl)c(C(F)(F)F)c1 (stereo not drawn)", "UniProt P41597", 91]
]}

Problem: Quick one: CCR2 % ANTAGONISM for "Nc1cccc(CSc2ccc(F)cc2NS(=O)(=O)c2cc3ccccc3o2)c1" ?
Solution: 97

Problem: # lookup: CCR2 % ANTAGONISM of O=S(=O)(Nc1cc(Cl)ccc1[S+]([O-])Cc1ccc[n+]([O-])c1)c1cc2ccccc2o1 (stereo not drawn)
Solution: 101

Problem: Need CCR2 % ANTAGONISM of "O=c1[nH]cc(CS(=O)(=O)c2ccc(Cl)cc2NS(=O)(=O)c2cc3ccccc3o2)c(=O)[nH]1" , thanks.
Solution: 0
